Ref: patent US20260327264A1

Test system: IL-23 mediated STAT3 signalling (DB cells)
PROTOCOL TEXT: Functional inhibition of IL-23 mediated STAT3 signalling (phospho-STAT3 Tyr705) in DB cells
Format: cell-based, human
MEASUREMENT CONTEXT: Table 3-2, EC80 of hIL-23, read-out: hIL-23 (pSTAT3) antagonist IC50
*1 amine or outer side, *2 acyl side, *3 side chain or, on linkers, in order; H or OH if unused. Where a SMILES comes first, the peptide text is derived from it. Bridges are numbered along the chain shown (N, C = ends). [ ]: non-standard residue; d: D form. 2Nal = N[C@@H](Cc1ccc2ccccc2c1)C(=O)O; AEF = NCCOc1ccc(C[C@H](N)C(=O)O)cc1; X1 = O=C(Cc1ccc(CN[*:1])cc1)[*:2]; 3Pal = N[C@@H](Cc1cccnc1)C(=O)O; αMeL = CC(C)C[C@](C)(N)C(=O)O; CH2COCH2 = O=C(C[*:1])C[*:2]; β3hL = CC(C)C[C@H](N)CC(=O)O; Dab = NCC[C@H](N)C(=O)O
ATTRIBUTE MEASURED: log10(IC50) (log10 of the value in nM)

COMPOUND	log10(IC50)
CC(C)C[C@]1(C)NC(=O)[C@H](Cc2ccc3ccccc3c2)NC(=O)[C@H](Cc2ccc(OCCN)cc2)NC(=O)[C@@H]2CSCC(=O)CSC[C@H](NC(=O)[C@H](CO)NC(=O)Cc3ccc(cc3)CNC(=O)CC[C@@H](C(=O)N[C@@H](CCN)C(N)=O)NC1=O)C(=O)N[C@@H](Cc1c[nH]c3ccccc13)C(=O)N[C@@H](CCC(N)=O)C(=O)N2 [Ref 82, reference compound] ([X1]SCWQC[AEF][2Nal][αMeL]E[Dab]-NH2; linker 3-6 via CH2COCH2; lactam N-10)	1.04
CC(C)C[C@@H](CC(N)=O)NC(=O)[C@H](Cc1cccnc1)NC(=O)[C@H](CCN)NC(=O)[C@@H]1CCC(=O)NCc2ccc(cc2)CC(=O)N[C@@H](CO)C(=O)N[C@H]2CCC(=O)NCC[C@H](NC(=O)[C@H](CCC(N)=O)NC(=O)[C@H](Cc3c[nH]c4ccccc34)NC2=O)C(=O)N[C@@H](Cc2ccc(OCCN)cc2)C(=O)N[C@@H](Cc2ccc3ccccc3c2)C(=O)N[C@@](C)(CC(C)C)C(=O)N1 [Compound 11] ([X1]SEWQ[Dab][AEF][2Nal][αMeL]E[Dab][3Pal][β3hL]-NH2; lactam 3-6, N-10)	-0.17
CNC(=O)[C@H](Cc1cccnc1)NC(=O)[C@H](CCN)NC(=O)[C@@H]1CCC(=O)NCc2ccc(cc2)CC(=O)N[C@@H](C)C(=O)N[C@H]2CCC(=O)NCC[C@H](NC(=O)[C@H](CCC(N)=O)NC(=O)[C@H](Cc3c[nH]c4ccccc34)NC2=O)C(=O)N[C@@H](Cc2cnc3ccccc3c2)C(=O)N[C@@H](Cc2ccc3ccccc3c2)C(=O)NC(C)(C)C(=O)N1	-0.22
CNC(=O)[C@H](Cc1cccnc1)NC(=O)[C@H](CCN)NC(=O)[C@@H]1CCC(=O)NCc2ccc(cc2)CC(=O)N[C@@H](CO)C(=O)N[C@H]2CCC(=O)NCC[C@H](NC(=O)[C@H](CCC(N)=O)NC(=O)[C@H](Cc3c[nH]c4ccccc34)NC2=O)C(=O)N[C@@H](Cc2ccc(OCCN)cc2)C(=O)N[C@@H](Cc2ccc3ccccc3c2)C(=O)N[C@@](C)(CC(C)C)C(=O)N1	-1.28
CC(C)C[C@]1(C)NC(=O)[C@H](Cc2ccc3ccccc3c2)NC(=O)[C@H](Cc2ccc(OCCN)cc2)NC(=O)[C@@H]2CCNC(=O)CC[C@H](NC(=O)[C@H](CO)NC(=O)Cc3ccc(cc3)CNC(=O)CC[C@@H](C(=O)N[C@@H](CCN)C(=O)N[C@@](C)(Cc3cccnc3)C(N)=O)NC1=O)C(=O)N[C@@H](Cc1c[nH]c3ccccc13)C(=O)N[C@@H](CCC(N)=O)C(=O)N2	0.23
